FYI, the data here is from PubChem BioAssay AID1159580.

assay: chemical genetic growth profiling, strain panel (AID 1159580);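 also: tested at 20 µM; growth read once vehicle control cultures reached saturation at 30 °C; 1 = growth at the plate median or of vehicle wells; lower values mean less growth of the strain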; conditions: S. cerevisiae deletion strains, growth OD, locus YPL055C, strain LGE1, active compounds read low
Screen size: about 5,500 compounds; about 2,000 (36%) were called active. Another 18% or so got no clear call; they are omitted. Some of the results follow.
assayEndpoint: normalized growth
Please respond with just the number, no unit label.

// worked examples, normalized growth included
# molecule, normalized growth
records = [
    ("NC(=O)c1cc[n+](CC2=C(C(=O)O)N3C(=O)[C@@H](NC(=O)[C@@H](c4ccccc4)S(=O)(=O)[O-])[C@H]3SC2)cc1", 0.988),
    ("CC(C)(C)OC(=O)C(C)(C)S(=O)(=O)c1ccc(Cl)cc1", 1.02),
    ("Cc1nn(C)c(C)c1NS(=O)(=O)c1cc(Cl)sc1Cl", 1.01),
]

Lab note: `COc1cc(N)c(Cl)cc1C(=O)NC1CCN(Cc2ccccc2)CC1` gave normalized growth of 0.976

Consider `COc1ccc2[nH]c3c(c2c1)CCNC3` . Its measured normalized growth is 1

Reported normalized growth of `O=C(NC1CCN(Cc2ccc(Cl)c(Cl)c2)CC1)c1ccccc1` : 0.995
